Where do the numbers come from? From patent US7109216B2.

experimental_readout: melting point

O=C(NN1CCCCC1)c1nc(-c2ccc(Cl)cc2Cl)n(-c2ccc(Cl)cc2)c1I :: 196 to 201 °C
CCCCCNC(=O)c1nc(-c2ccccc2Cl)n(-c2cccc(F)c2)c1C :: 97 to 102 °C
N#Cc1c(C(=O)NC2CCCCC2)nc(-c2ccc(Cl)cc2Cl)n1-c1ccc(Cl)cc1 :: 157 to 158 °C
CCc1c(C(=O)NN2CCCCC2)nc(-c2ccc(Cl)cc2Cl)n1-c1ccc(Cl)cn1 :: 146 °C
Cc1c(C(=O)Nc2ccccc2)nc(-c2ccc(Cl)cc2Cl)n1-c1ccc(Cl)cc1 :: 91 to 95 °C

In: Item `Cc1c(C(=O)NCc2ccc(C(F)(F)F)cc2)nc(-c2ccc(Cl)cc2Cl)n1-c1ccc(Cl)cc1` has what recorded melting point?
Out: 232 °C

In: Subsequent entry: `CCc1c(C(=O)NN2CCCCCC2)nc(-c2ccc(Cl)cc2Cl)n1-c1ccc(Cl)cn1`
Out: 177 °C

In: Thanks! And `O=C(NC1CCCCC1)c1cn(-c2ccc(Cl)cc2)c(-c2ccc(Cl)cc2F)n1` ?
Out: 157 to 159 °C
